// reported Relative rate (%) ST3N per item
System: ST3N
Test: Acceptor specificity of ST3N in COS-1 media
Settings: acceptor 0.2 mM
API: value field is a number in %; no unit string.

Some solved entries appear below for comparison.
CC(=O)N[C@H]1[C@H](O[C@H]2[C@@H](O)[C@@H](CO)O[C@@H](O[C@H]3[C@H](O)[C@@H](O)C(O)O[C@@H]3CO)[C@@H]2O)O[C@H](CO)[C@@H](O[C@@H]2O[C@@H](C)[C@@H](O)[C@@H](O)[C@@H]2O)[C@@H]1O[C@@H]1O[C@H](CO)[C@H](O)[C@H](O)[C@H]1O (stereo partly shown); 0
CC(=O)N[C@H]1[C@H](O[C@H]2[C@@H](O)[C@@H](CO)O[C@@H](O[C@H]3[C@H](O)[C@@H](O)C(O)O[C@@H]3CO)[C@@H]2O)O[C@H](CO)[C@@H](O[C@@H]2O[C@H](CO)[C@H](O)[C@H](O)[C@H]2O)[C@@H]1O[C@@H]1O[C@@H](C)[C@@H](O)[C@@H](O)[C@@H]1O (stereo partly shown); 0
CC(=O)N[C@H]1[C@H](O[C@H]2[C@@H](O)[C@@H](CO)O[C@@H](O[C@H]3[C@H](O)[C@@H](O)C(O)O[C@@H]3CO)[C@@H]2O)O[C@H](CO)[C@@H](O[C@@H]2O[C@H](CO)[C@H](O)[C@H](O)[C@H]2O)[C@@H]1O (stereo partly shown); 4

API: the following record is the query input.
Given item CC(=O)N[C@H]1[C@H](O[C@H]2[C@@H](O)[C@@H](CO)O[C@@H](O[C@H]3[C@H](O)[C@@H](O)C(O)O[C@@H]3CO)[C@@H]2O)O[C@H](CO)[C@@H](O)[C@@H]1O[C@@H]1O[C@H](CO)[C@H](O)[C@H](O)[C@H]1O (stereo partly shown) , the value recorded as its Relative rate (%) ST3N is 100
